// DGI-2 (OD) lookup, one value per entry
Target: T1, DGI-2 polypeptide (UniProt Q15004 1-111, limits assumed)
T1 construct: Vector-derived residues or tag of pIVEX2.3 are not described for this construct; also called KIAA0101
T1 sequence (looked up): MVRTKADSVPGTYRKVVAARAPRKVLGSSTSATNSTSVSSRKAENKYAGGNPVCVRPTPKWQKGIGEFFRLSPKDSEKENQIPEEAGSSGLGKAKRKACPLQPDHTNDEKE
Assay: phage ELISA, 405 nm; DGI-2 coated
// note: answer is a bare numeric in OD

Record excerpt, results attached:
binder | endpointUnit | DGI-2 (OD)
LSLLSVVVRSMGASAPQRQVAAAGAPVPYPDPLEPRP (not shown: phage gene III coat protein (pCANTAB5E)) [DGI-2-20F-3-A7] | OD | 2.1
GSVLERGCLEFSGFCFSLGHAAAGAPVPYPDPLEPRP (not shown: phage gene III coat protein (pCANTAB5E)) [DGI-2-20F-3-C1] | OD | 3.4
DGL-2-40F-3-D10 (not shown: phage gene III coat protein (pCANTAB5E)) peptide: TLVTEGNKGSVKAHKDIGVWQLWWDWLSVTDSETVGRVSHAAAGAPVPYPDPLEPRP | OD | 1.5
TPDRCLIYSSIQCLLEYSARRGSADAAAGAPVPYPDPLEPRP (not shown: phage gene III coat protein (pCANTAB5E)) [DGI-2-20C-3-C65] | OD | 1.8
ACSVGTALVFPQRWWYLGRSAAAGAPVPYPDPLEPRP (not shown: phage gene III coat protein (pCANTAB5E)) [DGL-2-20R-3-D6] | OD | 2.2

Alright, here's another binder for you.
In: Let me know recorded DGI-2 (OD) for DGI-2-40F-3-B11 (not shown: phage gene III coat protein (pCANTAB5E)) peptide: LAPMFLQNQVRTWAASRRPLPAGPSNARCETGSLSPWVPCAAAGAPVPYPDPLEPRP , thanks.
Out: 1.8
